The measured values listed here are drawn from ChEMBL document CHEMBL3611990.

Assay: Oral bioavailability in Sprague-Dawley rat by LC/MS/MS analysis
Type: ADME, organism-based
Details: in vivo
Recorded bioavailability for the following molecules
Write the figure, then the unit, nothing else.

Check out these entries, answers already filled in.
> print(dat)
                                 testsmiles  valuereported
1  CNS(=O)(=O)c1ccc(N(C)C)c(Nc2ncnc3[nH]ccc23)c1           100%
2    CNS(=O)(=O)c1cccc(Nc2ncnc3[nH]ccc23)c1            34%

Now, please, on to the next molecule.
Challenge: Look up and report measured bioavailability for this entry: CNS(=O)(=O)c1cccc(Nc2ncnc3[nH]ncc23)c1
Response given: 5%

----------
Assay: Plasma clearance in Sprague-Dawley rat at 1 mg/kg, iv by LC/MS/MS analysis
Type: ADME, organism-based
observedProperty: clearance (mL/min/kg)
Reply numerically in mL/min/kg, unit not repeated.

Check out these entries, answers already filled in.
> print(dat)
                                 testsmiles  observedproperty  unitdescriptor  valuereported
1    CNS(=O)(=O)c1cccc(Nc2ncnc3[nH]ncc23)c1         clearance       mL/min/kg             72
2  CNS(=O)(=O)c1cccc(Nc2ncnc3[nH]cc(Cl)c23)c1         clearance       mL/min/kg             20
3  CNS(=O)(=O)c1cccc(Nc2ncnc3[nH]cc(-c4ccccc4)c23)c1         clearance       mL/min/kg             93
4  CNS(=O)(=O)c1cccc(Nc2ncnc3[nH]cc(-c4ccc(Cl)cc4)c23)c1         clearance       mL/min/kg             65

Challenge: Look up and report measured clearance for this entry: CNS(=O)(=O)c1cccc(Nc2ncnc3[nH]ccc23)c1
Response given: 68

Challenge: Look up and report measured clearance for this entry: CNS(=O)(=O)c1ccc(N2CCOCC2)c(Nc2ncnc3[nH]ccc23)c1
Response given: 39

Challenge: Look up and report measured clearance for this entry: CNS(=O)(=O)c1ccc(N(C)C)c(Nc2ncnc3[nH]ccc23)c1
Response given: 30

Challenge: Look up and report measured clearance for this entry: CNS(=O)(=O)c1cccc(Nc2ncnc3[nH]cc(Br)c23)c1
Response given: 23

----------
Target: Serine/threonine-protein kinase TNNI3K (Homo sapiens, UniProt Q59H18)
Sequence (Q59H18 whole entry): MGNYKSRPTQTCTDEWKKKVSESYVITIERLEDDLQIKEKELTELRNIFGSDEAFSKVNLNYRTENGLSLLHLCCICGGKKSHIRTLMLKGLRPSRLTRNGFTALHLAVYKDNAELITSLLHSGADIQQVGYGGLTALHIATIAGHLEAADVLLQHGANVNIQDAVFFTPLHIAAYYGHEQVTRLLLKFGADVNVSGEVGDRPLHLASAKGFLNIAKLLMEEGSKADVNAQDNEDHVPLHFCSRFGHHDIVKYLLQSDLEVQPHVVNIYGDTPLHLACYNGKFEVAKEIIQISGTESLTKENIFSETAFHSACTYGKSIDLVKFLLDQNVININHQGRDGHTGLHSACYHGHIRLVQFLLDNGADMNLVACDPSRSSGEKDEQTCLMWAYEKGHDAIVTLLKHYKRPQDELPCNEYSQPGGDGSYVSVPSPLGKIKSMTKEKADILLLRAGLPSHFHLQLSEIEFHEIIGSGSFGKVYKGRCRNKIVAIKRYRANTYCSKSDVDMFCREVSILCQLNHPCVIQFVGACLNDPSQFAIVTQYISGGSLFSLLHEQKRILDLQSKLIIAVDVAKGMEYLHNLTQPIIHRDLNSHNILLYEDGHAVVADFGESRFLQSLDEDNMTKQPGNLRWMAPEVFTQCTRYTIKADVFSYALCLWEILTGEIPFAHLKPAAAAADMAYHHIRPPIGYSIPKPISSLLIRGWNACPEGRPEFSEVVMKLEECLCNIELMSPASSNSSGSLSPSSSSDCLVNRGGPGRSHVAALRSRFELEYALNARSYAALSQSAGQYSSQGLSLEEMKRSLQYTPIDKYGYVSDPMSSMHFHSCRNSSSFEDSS
Assay: Displacement of 5-({[2-({[3-({4-[(5-hydroxy-2-methylphenyl)amino]-2-pyrimidinyl}amino)phenyl]carbonyl}amino)-ethyl]amino}carbonyl)-2-(6-hydroxy-3-oxo-3H-xanthen-9-yl)benzoic acid from His6-MBP-TEV-full length human TNNI3K expressed in Baculovirus expression system after 60 mins by fluorescence polarization assay
Recorded pIC50 for the following compounds
In simple prose, pIC50 is minus the logarithm base ten of a concentration in moles per litre.

Check out these entries, answers already filled in.
> print(dat)
                                 testsmiles  observedproperty  valuereported
1  CNS(=O)(=O)c1cccc(Nc2ncnc3[nH]c(C(=O)O)cc23)c1             pIC50           6.80
2  CNS(=O)(=O)c1cccc(Nc2nc(F)nc3[nH]cnc23)c1             pIC50           5.49
3   CNS(=O)(=O)c1cccc(Nc2ncnc3c2CC(=O)N3)c1             pIC50           6.40

Challenge: Look up and report measured pIC50 for this entry: CNS(=O)(=O)c1cccc(Nc2ncnc3[nH]cc(-c4ccc(CN)cc4)c23)c1
Response given: 7.49

----------
Biological target: Serine/threonine-protein kinase TNNI3K (Homo sapiens, UniProt Q59H18)
Sequence (Q59H18 whole entry): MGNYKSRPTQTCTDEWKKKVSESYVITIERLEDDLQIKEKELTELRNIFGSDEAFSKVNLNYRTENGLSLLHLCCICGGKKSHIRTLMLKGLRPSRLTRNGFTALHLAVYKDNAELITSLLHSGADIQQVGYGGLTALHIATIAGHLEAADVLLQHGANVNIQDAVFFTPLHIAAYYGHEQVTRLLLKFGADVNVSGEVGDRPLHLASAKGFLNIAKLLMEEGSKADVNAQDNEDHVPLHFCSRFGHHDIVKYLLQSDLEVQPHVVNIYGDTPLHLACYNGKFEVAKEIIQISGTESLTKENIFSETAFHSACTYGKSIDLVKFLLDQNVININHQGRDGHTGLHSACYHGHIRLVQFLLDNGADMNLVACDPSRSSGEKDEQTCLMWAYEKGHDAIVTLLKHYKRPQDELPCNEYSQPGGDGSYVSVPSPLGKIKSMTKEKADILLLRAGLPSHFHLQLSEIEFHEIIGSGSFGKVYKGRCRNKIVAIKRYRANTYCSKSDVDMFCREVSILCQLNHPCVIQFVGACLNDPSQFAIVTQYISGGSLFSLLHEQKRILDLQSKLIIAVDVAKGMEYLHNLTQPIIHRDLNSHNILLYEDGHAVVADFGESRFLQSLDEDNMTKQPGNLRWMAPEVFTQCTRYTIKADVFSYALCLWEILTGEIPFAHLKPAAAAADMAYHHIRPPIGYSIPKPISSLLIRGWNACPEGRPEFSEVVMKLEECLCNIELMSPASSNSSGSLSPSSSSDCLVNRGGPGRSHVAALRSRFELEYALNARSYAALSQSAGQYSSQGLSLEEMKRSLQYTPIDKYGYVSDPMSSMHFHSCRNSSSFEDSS
Experiment: Displacement of 5-({[2-({[3-({4-[(5-hydroxy-2-methylphenyl)amino]-2-pyrimidinyl}amino)phenyl]carbonyl}amino)-ethyl]amino}carbonyl)-2-(6-hydroxy-3-oxo-3H-xanthen-9-yl)benzoic acid from His6-MBP-TEV-full length human TNNI3K expressed in Baculovirus expression system after 60 mins by fluorescence polarization assay
Recorded log10 of IC50 for the following compounds
Record value = log10 of IC50 given in µM.

Check out these entries, answers already filled in.
> print(dat)
                                 testsmiles  valuereported
1  CNS(=O)(=O)c1cccc(Nc2ncnc3[nH]cc(Br)c23)c1          -1.49
2  CNS(=O)(=O)c1ccc(C)c(Nc2ncnc3[nH]ccc23)c1          -0.20
3     NS(=O)(=O)c1cccc(Nc2ncnc3[nH]cnc23)c1           1.60

Challenge: Look up and report measured log10 of IC50 for this entry: CNS(=O)(=O)c1ccc(N2CCOCC2)c(Nc2ncnc3[nH]c(Br)cc23)c1
Response given: -0.90

Challenge: Look up and report measured log10 of IC50 for this entry: CNS(=O)(=O)c1ccc(N(C)C)c(Nc2ncnc3[nH]c(Br)cc23)c1
Response given: -1.40

----------
Test: Volume of distribution at steady state in Sprague-Dawley rat by LC/MS/MS analysis
Format: ADME, organism-based
Settings: in vivo, read-out: Vdss
Recorded Vd for the following molecules
Reply numerically in L/kg, unit not repeated.

> print(dat)
                                 testsmiles  valuereported
1  CNS(=O)(=O)c1cccc(Nc2ncnc3[nH]cc(Cl)c23)c1           0.45
2    CNS(=O)(=O)c1cccc(Nc2ncnc3[nH]ccc23)c1            1.4

Now, please, on to the next molecule.
Challenge: Look up and report measured Vd for this entry: CNS(=O)(=O)c1cccc(Nc2ncnc3[nH]cc(Br)c23)c1
Response given: 0.63
